The reported numbers originate from paper PMC3495175.

IC50 values for the molecules below.
target: MtMetAP1a (Mycobacterium tuberculosis); experiment: MtMetAP1a coupled enzyme assay; type: biochemical; details: IC50 (µM), MtMetAP 1a, Mn2+, Mn2+ cofactor (10 µM MnCl2), 200 nM enzyme
Sequence (P9WK21 whole entry): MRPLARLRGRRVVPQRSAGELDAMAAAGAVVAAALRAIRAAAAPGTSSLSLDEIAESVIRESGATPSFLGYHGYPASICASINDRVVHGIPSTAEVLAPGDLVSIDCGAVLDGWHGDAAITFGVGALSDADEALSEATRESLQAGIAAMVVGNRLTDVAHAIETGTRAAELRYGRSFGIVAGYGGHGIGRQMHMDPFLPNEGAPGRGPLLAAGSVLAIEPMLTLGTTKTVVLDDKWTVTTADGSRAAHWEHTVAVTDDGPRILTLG

Take a look at these entries with their results.
- molecule: "CCCCCCCCC(=O)Nc1nc2c(s1)CCc1ccccc1-2 [3q, reference compound]"
  observable: "IC50"
  observed: "> 50 µM"
- molecule: "COc1ccc2c(c1)Cc1sc(N/C=N\\O)nc1-2"
  observable: "IC50"
  observed: "> 50 µM"
- molecule: "COc1ccc(-c2csc(N/C=N\\O)n2)cc1OC"
  observable: "IC50"
  observed: "> 20 µM"
- molecule: "O/N=C\\Nc1nc2c(s1)COc1cc3c(cc1-2)OCO3"
  observable: "IC50"
  observed: "> 10 µM"
- molecule: "COc1ccc2c(c1)CCc1sc(/N=C/c3ccco3)nc1-2"
  observable: "IC50"
  observed: "> 50 µM"

Attention now turns to another entry.
### Prompt Which IC50 value belongs to COc1ccc2c(c1)CCc1sc(NCc3ccco3)nc1-2 ?
### Response > 50 µM
